- target-system: T1, Nluc-IL23R fusion protein (human, UniProt Q5VWK5 22-629)
- T1 construct: range 22-629; expressed with a secretion signal in HEK293 cells; used as crude membrane preparation; also called hIL-23R; human IL-23R; not shown: Nanoluc protein from the expression plasmid N1371 (Promega), N-terminal of IL-23R
- T1 sequence (looked up): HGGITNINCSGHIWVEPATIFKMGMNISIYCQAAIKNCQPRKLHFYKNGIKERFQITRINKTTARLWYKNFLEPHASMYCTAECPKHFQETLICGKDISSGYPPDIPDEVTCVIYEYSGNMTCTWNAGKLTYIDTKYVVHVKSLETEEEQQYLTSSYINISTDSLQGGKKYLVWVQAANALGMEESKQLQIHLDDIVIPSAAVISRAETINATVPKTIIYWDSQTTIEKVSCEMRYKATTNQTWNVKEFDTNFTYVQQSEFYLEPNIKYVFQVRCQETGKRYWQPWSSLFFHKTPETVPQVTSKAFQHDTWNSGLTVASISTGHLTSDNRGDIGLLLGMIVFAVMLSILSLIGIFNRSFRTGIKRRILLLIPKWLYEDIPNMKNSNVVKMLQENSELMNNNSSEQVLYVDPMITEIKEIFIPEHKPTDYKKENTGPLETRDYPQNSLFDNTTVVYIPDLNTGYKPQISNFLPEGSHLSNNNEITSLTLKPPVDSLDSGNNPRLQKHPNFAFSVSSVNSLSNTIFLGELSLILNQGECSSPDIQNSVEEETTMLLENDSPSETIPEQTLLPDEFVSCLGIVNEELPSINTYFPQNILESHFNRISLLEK
- measurement-notes: BRET competition vs TAMRA-labelled peptide, Nluc-IL23R membranes
*1 amine or outer side, *2 acyl side, *3 side chain or, on linkers, in order; H or OH if unused. Bridges are numbered along the chain shown (N, C = ends). [ ]: non-standard residue; d: D form. 4‑Aminomethyl‑phenylacetyl = 4-aminomethyl-phenylacetyl unit, its amine closes the lactam, O=C(Cc1ccc(CN[*:1])cc1)[*:2]; 2Nal = N[C@@H](Cc1ccc2ccccc2c1)C(=O)O; AEF = NCCOc1ccc(C[C@H](N)C(=O)O)cc1; αMeL = CC(C)C[C@](C)(N)C(=O)O; 3Amb = NCc1cccc(C(=O)O)c1
Reported pIC50 values for a set of binders
// returns pIC50 (minus log10 of molar concentration), number only

Reference set, count: 3
{"columns": ["binder", "pIC50"],
 "data": [
  ["Ac-DESCWQCW[2Nal]LKR-NH2 (lactam 2-11; bridge 4-7; not fully specified (bridges); printed as [Ac]-DE(1c)SC(2a)WQC(2a)W[2-Nal]LK(1c)R-[NH2]) [Ref 17]", 7.06],
  ["XQTWQCYWXENG ([Ac]-[Abu](16i)QTWQC(16i)[Y(2-aminoethoxy)]W[2-Me-Lys]ENG-[NH2]; (16i) [2,7] thioether bridge (cystathionine); N-terminal acetyl, C-terminal amide, Y = Y(2-aminoethoxy)) [Compound C]", 8.59],
  ["[4‑Aminomethyl‑phenylacetyl]SCWQC[AEF][2Nal][αMeL]ER-NH2 (lactam N-10; bridge 3-6; not fully specified (bridges); printed as [4-Aminomethyl-phenylacetyl](1c)*SC(2a)WQC(2a)[Y(2-aminoethoxy)][2-Nal][2-Me-Leu]E(1c)R-[NH2], Y = Y(2-aminoethoxy)) [Ref 52]", 10.24]
]}

Request: Which pIC50 reading was recorded for the binder [3Amb]SCWQCW[2Nal]LER-NH2 (lactam N-10; bridge 3-6; not fully specified (bridges); printed as [(3-Aminomethyl)benzoyl](1c)*SC(2a)WQC(2a)W[2-Nal]LE(1c)R-[NH2]) [Ref 37] ?
Result: 7.92
